# target of assay: OAT1 (Homo sapiens)
# Construct: gene SLC22A6
# Sequence (Q4U2R8 whole entry): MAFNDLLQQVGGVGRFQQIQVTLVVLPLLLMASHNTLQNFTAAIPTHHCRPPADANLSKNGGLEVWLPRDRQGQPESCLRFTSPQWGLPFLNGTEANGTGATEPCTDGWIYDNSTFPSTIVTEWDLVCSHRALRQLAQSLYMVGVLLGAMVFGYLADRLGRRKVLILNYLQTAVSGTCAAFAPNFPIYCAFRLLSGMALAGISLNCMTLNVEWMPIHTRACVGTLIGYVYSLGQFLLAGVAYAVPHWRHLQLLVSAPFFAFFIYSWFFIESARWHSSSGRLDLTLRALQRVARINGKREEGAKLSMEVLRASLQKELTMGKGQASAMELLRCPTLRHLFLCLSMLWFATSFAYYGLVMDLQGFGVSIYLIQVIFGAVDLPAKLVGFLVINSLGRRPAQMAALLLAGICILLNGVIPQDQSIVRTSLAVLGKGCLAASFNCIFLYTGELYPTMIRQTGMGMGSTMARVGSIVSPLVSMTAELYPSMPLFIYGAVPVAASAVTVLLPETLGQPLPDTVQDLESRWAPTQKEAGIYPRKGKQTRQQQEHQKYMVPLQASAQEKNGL
# method summary: inhibition of 6-carboxyfluorescein uptake in HEK-293 cells stably overexpressing human OAT1
# Type: cell-based
pIC50: −log10 of the molar value.
recorded endpoint: pIC50

[[record]]
smiles_string = "O=C(O)[C@@H](O)Cc1c[nH]c2ccccc12"
target_of_assay = "OAT1 (Homo sapiens)"
recorded_endpoint = "pIC50"
result_number = 3.64


* * *

# target of assay: OAT3 (Homo sapiens)
# Construct: gene SLC22A8
# Sequence (Q8TCC7 whole entry): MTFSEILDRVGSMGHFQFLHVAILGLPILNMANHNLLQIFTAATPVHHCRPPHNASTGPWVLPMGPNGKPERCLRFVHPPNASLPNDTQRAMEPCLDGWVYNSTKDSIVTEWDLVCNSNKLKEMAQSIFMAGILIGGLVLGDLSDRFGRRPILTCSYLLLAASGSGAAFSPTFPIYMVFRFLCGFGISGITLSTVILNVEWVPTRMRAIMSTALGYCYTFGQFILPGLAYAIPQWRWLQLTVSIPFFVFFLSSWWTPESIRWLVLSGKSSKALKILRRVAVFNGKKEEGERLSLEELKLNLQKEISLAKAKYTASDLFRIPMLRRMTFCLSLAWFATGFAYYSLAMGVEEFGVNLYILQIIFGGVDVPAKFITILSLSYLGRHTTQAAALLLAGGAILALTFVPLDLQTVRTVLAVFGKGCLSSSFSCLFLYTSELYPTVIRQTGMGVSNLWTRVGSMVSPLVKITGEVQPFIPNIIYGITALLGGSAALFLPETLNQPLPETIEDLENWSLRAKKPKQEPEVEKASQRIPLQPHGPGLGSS
# method summary: inhibition of 6-carboxyfluorescein uptake in HEK-293 cells stably overexpressing human OAT3 (data not shown)
# Assay type: cell-based
pIC50: −log10 of the molar value.
recorded endpoint: pIC50

[[record]]
molecule = "NCCc1c[nH]c2ccc(O)cc12 [serotonin]"
result_number = 3.54


* * *

# target of assay: OAT3 (Homo sapiens)
# Construct: gene SLC22A8
# method summary: inhibition of 6-carboxyfluorescein uptake in HEK-293 cells stably overexpressing human OAT3
# Format: cell-based
recorded endpoint: IC50 (µM)

[[record]]
compound = "O=C(O)[C@@H](O)Cc1c[nH]c2ccccc12 [ILA, indolelactic acid]"
result_number = 74.5

